assay: LD50 (acute toxicity); conditions: in vivo, iv
OBSERVATION TYPE: LD50 (mg/kg)
Only the number, expressed in mg/kg, is required.

{"columns": ["COMPOUND", "QUANTITATIVE READOUT"],
 "data": [
  ["COc1c2c(c(O)c3c4c(c(C)cc13)C1OC3(C(OC)OC)OC1C(O)(O4)C31CO1)C(=O)C(O)CC2O (centres unmarked)", 14]
]}

Continue with the next compound.
Which LD50 is reported for this compound? COc1c2c(c(O)c3c4c(c(C)cc13)C1OC3(C(OC)OC)OC1C(O)(O4)C31CO1)C(=O)C(O)CC2OC1CC(C)(O)C(OC(C)=O)C(C)O1 (centres unmarked)
0.375

Every entry's value here was drawn from patent US4459291A.
